# Measured Target: serotonin transporter (Rattus norvegicus (Rat))
# Sequence (P31652 whole entry): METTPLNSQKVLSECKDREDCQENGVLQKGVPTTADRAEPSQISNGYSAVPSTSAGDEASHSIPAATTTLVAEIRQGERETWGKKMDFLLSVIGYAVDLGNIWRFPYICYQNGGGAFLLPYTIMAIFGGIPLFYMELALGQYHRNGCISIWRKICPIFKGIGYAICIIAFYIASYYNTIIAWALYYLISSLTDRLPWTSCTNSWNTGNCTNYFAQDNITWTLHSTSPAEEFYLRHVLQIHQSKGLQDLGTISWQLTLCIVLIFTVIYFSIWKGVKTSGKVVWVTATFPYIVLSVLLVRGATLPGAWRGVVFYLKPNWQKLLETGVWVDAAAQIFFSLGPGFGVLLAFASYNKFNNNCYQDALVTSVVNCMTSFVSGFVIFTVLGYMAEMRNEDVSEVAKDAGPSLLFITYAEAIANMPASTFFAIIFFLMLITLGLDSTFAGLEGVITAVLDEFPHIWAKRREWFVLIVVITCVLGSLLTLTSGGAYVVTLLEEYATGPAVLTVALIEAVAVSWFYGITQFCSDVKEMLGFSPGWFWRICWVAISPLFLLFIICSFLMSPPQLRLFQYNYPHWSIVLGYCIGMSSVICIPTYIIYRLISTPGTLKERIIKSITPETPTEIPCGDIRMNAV
# Assay Summary: Inhibitory effect on [3H]5-HT uptake in rat synaptosome
# Format: biochemical
# Condition Description: rat brain synaptosomes, 37° C., 15 minutes, 0.1 μCi [3H]5-HT
Measured Property: IC50

{"Molecule": "Cc1nc(N2CCN(CCCCc3c[nH]c4ccc(F)cc34)CC2)sc1C(N)=O [Example 41]", "Measured Property": "IC50", "Data Value": "2.4 nM"}
{"Molecule": "CCOC(=O)c1sc(N2CCN(CCCc3c[nH]c4ccc(F)cc34)CC2)nc1C [Example 38]", "Measured Property": "IC50", "Data Value": "11 nM"}
{"Molecule": "NC(=O)c1ccnc(N2CCN(CCCCc3c[nH]c4ccc(F)cc34)CC2)n1 [Example 27]", "Measured Property": "IC50", "Data Value": "2.7 nM"}
{"Molecule": "N#Cc1ccnc(N2CCN(CCCc3c[nH]c4ccc(F)cc34)CC2)n1 [Example 25]", "Measured Property": "IC50", "Data Value": "4.5 nM"}
{"Molecule": "CC1CN(c2nccc(C(N)=O)n2)CCN1CCCCc1c[nH]c2ccc(C#N)cc12 (stereo not drawn) [Example 50]", "Measured Property": "IC50", "Data Value": "0.36 nM"}
{"Molecule": "COc1cc(C)nc(N2CCN(CCCc3c[nH]c4ccc(C#N)cc34)CC2)n1 [Example 22]", "Measured Property": "IC50", "Data Value": "2.7 nM"}
{"Molecule": "Cc1nc(N2CCN(CCCc3c[nH]c4ccc(F)cc34)CC2)sc1C(N)=O [Example 42]", "Measured Property": "IC50", "Data Value": "5.3 nM"}
{"Molecule": "COc1cc(OC)nc(N2CCN(CCCc3c[nH]c4ccc(F)cc34)CC2)n1 [Example 9]", "Measured Property": "IC50", "Data Value": "4.4 nM"}
{"Molecule": "NC(=O)c1ccnc(N2CCN(CCCc3c[nH]c4ccc(F)cc34)CC2)n1 [Example 29]", "Measured Property": "IC50", "Data Value": "1.4 nM"}

* * *

# Measured Target: UniProt P08908
# Sequence (P08908 whole entry): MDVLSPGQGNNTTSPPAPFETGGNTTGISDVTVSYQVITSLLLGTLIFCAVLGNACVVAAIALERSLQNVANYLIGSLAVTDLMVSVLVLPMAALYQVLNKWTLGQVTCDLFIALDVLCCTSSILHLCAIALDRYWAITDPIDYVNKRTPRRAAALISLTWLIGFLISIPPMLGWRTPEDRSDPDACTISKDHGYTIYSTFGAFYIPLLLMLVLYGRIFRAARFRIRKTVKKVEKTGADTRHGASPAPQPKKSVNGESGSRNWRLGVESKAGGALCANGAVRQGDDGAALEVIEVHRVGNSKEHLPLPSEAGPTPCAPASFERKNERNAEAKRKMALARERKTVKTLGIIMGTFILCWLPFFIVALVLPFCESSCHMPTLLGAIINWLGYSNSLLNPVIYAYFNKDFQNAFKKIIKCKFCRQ
# Assay Summary: Affinity for human 5-HT1A receptor ([3H]8-OH-DPAT binding, HEK-293 cell homogenates);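 note: Filter-retained radioactivity counted by scintillation, non-specific binding defined with 10 µM 8-OH-DPAT, Ki derived from percent inhibition of specific radioligand binding versus control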
# Condition Description: read-out: Ki, binding affinity for 5-HT1A receptor; 0.3 nM [3H]8-OH-DPAT, human HEK-293 cell homogenates, 22° C., 60 minutes
Property: log10 Ki; scope: individual compounds
Measured Property: log10 Ki (log10 of the value in nM)

{"Compound": "Cc1cc(C)nc(N2CCN(CCCCc3c[nH]c4ccc(C#N)cc34)CC2)n1 [Example 15]", "log10 Ki": 0.46}
{"Compound": "COc1ccc2[nH]cc(CCCCN3CCN(c4nc(OC)cc(OC)n4)CC3)c2c1 [Example 2]", "log10 Ki": 0.15}
{"Compound": "COc1cc(OC)nc(N2CCN(CCCc3c[nH]c4ccc(C#N)cc34)CC2)n1 [Example 10]", "log10 Ki": 0.11}
{"Compound": "COc1cc(OC)nc(N2CCN(CCCCc3c[nH]c4ccccc34)CC2)n1 [Example 1]", "log10 Ki": 0.52}
{"Compound": "N#Cc1ccc2[nH]cc(CCCN3CCN(c4nccc(C#N)n4)CC3)c2c1 [Example 26]", "log10 Ki": 0.90}
{"Compound": "Cc1cc(C)nc(N2CCN(CCCCc3c[nH]c4ccc(F)cc34)CC2)n1 [Example 14]", "log10 Ki": 0.23}
{"Compound": "Cc1nc(N2CCN(CCCCc3c[nH]c4ccc(F)cc34)CC2)sc1C#N [Example 45]", "log10 Ki": 1.15}
{"Compound": "NC(=O)c1ccnc(N2CCN(CCCc3c[nH]c4ccc(F)cc34)CC2)n1 [Example 29]", "log10 Ki": 1.08}
{"Compound": "Cc1nc(N2CCN(CCCc3c[nH]c4ccc(F)cc34)CC2)sc1C#N [Example 46]", "log10 Ki": 0.62}
